Target: UniProt:Q04771
Sequence (Q04771 21-509): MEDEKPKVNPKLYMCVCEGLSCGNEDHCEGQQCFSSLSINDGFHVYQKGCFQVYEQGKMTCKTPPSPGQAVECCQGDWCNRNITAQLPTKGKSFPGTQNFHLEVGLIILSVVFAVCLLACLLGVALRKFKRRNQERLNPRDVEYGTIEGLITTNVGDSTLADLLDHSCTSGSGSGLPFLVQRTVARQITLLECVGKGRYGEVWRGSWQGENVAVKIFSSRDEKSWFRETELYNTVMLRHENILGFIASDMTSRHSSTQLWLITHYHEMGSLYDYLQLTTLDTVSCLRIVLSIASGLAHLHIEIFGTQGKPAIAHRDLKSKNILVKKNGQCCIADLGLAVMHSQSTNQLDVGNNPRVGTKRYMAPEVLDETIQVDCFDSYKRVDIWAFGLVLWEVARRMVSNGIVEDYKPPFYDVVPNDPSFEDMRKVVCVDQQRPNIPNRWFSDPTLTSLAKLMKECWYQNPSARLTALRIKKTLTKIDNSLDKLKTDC
Assay: Activin-Like Kinase 2 (ALK2) enzyme assay
Assay type: biochemical
Provide the reported IC50 of each item.

Measured IC50 of CCCS(=O)(=O)N1CCOc2c(F)cc(-c3cc(-c4ccc(N5CCNCC5)cc4)cnc3N)cc21 : > 1000 nM

Measured IC50 of CCCS(=O)(=O)Nc1cc(-c2cc(-c3ccc(N4CCNCC4)cc3)cnc2N)cc(OCC)c1OC : > 100000 nM

Measured IC50 of CCCS(=O)(=O)N1CCOc2ccc(-c3cc(-c4ccc(N5CCNCC5)cc4)cnc3N)cc21 : > 100000 nM

Measured IC50 of CCCS(=O)(=O)Nc1cc(-c2cc(-c3ccc(N4CCNCC4)cc3)cnc2N)cc(OCC)c1OCC : > 100000 nM

Measured IC50 of CCCS(=O)(=O)Nc1cc(-c2cc(-c3ccc(N4CCNCC4)cc3)cnc2C)cc(F)c1OC : > 100000 nM

Measured IC50 of CCOc1cc(-c2cc(-c3ccc(N4CCNCC4)cc3)cnc2N)cc(NS(=O)(=O)Cc2ccccc2)c1C : > 1000 nM

Measured IC50 of CCCS(=O)(=O)Nc1ccc(-c2cc(-c3ccc(N4CCNCC4)cc3)cnc2C)cc1OC : > 100000 nM

Measured IC50 of CCCS(=O)(=O)Nc1cc(-c2cc(-c3ccc(N4CCNCC4)cc3)cnc2N)cc(F)c1C : > 100000 nM

====

Biological target: Recombinant RIPK2 protein (Homo sapiens, UniProt O43353)
Sequence (O43353 whole entry, species assumed): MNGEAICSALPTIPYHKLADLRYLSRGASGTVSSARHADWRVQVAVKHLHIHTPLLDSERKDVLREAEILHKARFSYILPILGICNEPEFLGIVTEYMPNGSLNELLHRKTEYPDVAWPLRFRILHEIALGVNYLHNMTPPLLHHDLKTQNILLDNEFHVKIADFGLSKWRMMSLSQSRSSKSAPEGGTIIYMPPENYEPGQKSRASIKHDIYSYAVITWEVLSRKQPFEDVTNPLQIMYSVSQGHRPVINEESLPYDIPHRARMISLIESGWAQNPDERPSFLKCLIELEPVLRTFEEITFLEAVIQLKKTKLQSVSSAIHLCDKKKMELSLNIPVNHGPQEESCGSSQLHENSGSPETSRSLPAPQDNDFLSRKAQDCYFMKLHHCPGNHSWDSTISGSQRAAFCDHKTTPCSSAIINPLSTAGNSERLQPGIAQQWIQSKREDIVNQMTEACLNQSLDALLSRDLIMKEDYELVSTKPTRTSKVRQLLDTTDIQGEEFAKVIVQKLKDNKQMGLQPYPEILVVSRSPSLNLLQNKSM
Assay: Receptor Interacting Protein Kinase 2 (RIPK2) enzyme assay (ADP-Glo)
Type: biochemical
Provide the reported IC50 of each item.

Measured IC50 of COc1cc(NS(C)(=O)=O)cc(-c2cc(-c3ccc(N4CCNCC4)cc3)cnc2N)c1 : > 10 nM

Measured IC50 of CCCS(=O)(=O)Nc1cc(-c2cc(-c3ccc(N4CCNCC4)cc3)cnc2C)cc(F)c1OC : > 1000 nM

Measured IC50 of CCS(=O)(=O)Nc1cc(OC)cc(-c2cc(-c3ccc(N4CCNCC4)cc3)cnc2Cl)c1 : > 100 nM

Measured IC50 of CCCS(=O)(=O)Nc1cc(-c2cc(-c3ccc(N4CCNCC4)cc3)cnc2N)ccc1O : > 10 nM

Measured IC50 of COc1cc(NS(=O)(=O)C2CC2)cc(-c2cc(-c3ccc(N4CCNCC4)cc3)cnc2N)c1 : > 10 nM

Measured IC50 of COc1cc(NS(=O)(=O)Cc2ccccc2)cc(-c2cc(-c3ccc(N4CCNCC4)cc3)cnc2N)c1 : > 100 nM

Measured IC50 of CCCS(=O)(=O)N1CCc2ccc(-c3cc(-c4ccc(N5CCNCC5)cc4)cnc3N)cc21 : > 100 nM

Measured IC50 of COc1cc(-c2cc(-c3ccc(N4CCNCC4)cc3)cnc2N)cc(NS(=O)(=O)Cc2ccccc2)c1C : > 1000 nM

====

Target: Recombinant RIPK2 protein (Homo sapiens)
Test: Receptor Interacting Protein Kinase 2 (RIPK2) enzyme assay (ADP-Glo)
Format: biochemical
measured_quantity: IC50

GET /values?item= CCCS(=O)(=O)Nc1cc(-c2cc(-c3ccc(N4CCNCC4)cc3)cnc2N)cc(Cl)c1C [CSLP40] &system= Recombinant RIPK2 protein (Homo sapiens) returns IC50: > 100 nM

GET /values?item= CCCS(=O)(=O)Nc1cc(-c2cc(-c3ccc(N4CCNCC4)cc3)cnc2N)cc(OC)c1OC [CSLP43] &system= Recombinant RIPK2 protein (Homo sapiens) returns IC50: > 10 nM

GET /values?item= CCCS(=O)(=O)Nc1cc(OC)cc(-c2cc(-c3cccc(S(C)(=O)=O)c3)cnc2N)c1 [CSLP44] &system= Recombinant RIPK2 protein (Homo sapiens) returns IC50: > 10 nM

GET /values?item= CCCS(=O)(=O)Nc1cc(-c2cc(-c3ccc(N4CCNCC4)cc3)cnc2N)cc(C)c1OC [CSLP42] &system= Recombinant RIPK2 protein (Homo sapiens) returns IC50: > 10 nM

GET /values?item= COc1cc(NS(=O)(=O)C(C)C)cc(-c2cc(-c3ccc(N4CCNCC4)cc3)cnc2C)c1 [CSLP16] &system= Recombinant RIPK2 protein (Homo sapiens) returns IC50: > 10 nM

GET /values?item= COc1cc(-c2cc(-c3ccc(N4CCNCC4)cc3)cnc2N)cc(NS(=O)(=O)C(C)C)c1C [CSLP25] &system= Recombinant RIPK2 protein (Homo sapiens) returns IC50: > 1000 nM

GET /values?item= CCS(=O)(=O)Nc1cc(OC)cc(-c2cc(-c3ccc(N4CCNCC4)cc3)cnc2N)c1 [CSLP7] &system= Recombinant RIPK2 protein (Homo sapiens) returns IC50: > 10 nM

GET /values?item= CCCS(=O)(=O)Nc1cc(-c2cc(-c3ccc(N4CCNCC4)cc3)cnc2N)cc(Cl)c1OC [CSLP35] &system= Recombinant RIPK2 protein (Homo sapiens) returns IC50: > 10 nM

GET /values?item= COc1ccc(-c2cc(-c3ccc(N4CCNCC4)cc3)cnc2N)cc1NS(=O)(=O)C(C)C [CSLP28] &system= Recombinant RIPK2 protein (Homo sapiens) returns IC50: > 10 nM

GET /values?item= CCCS(=O)(=O)Nc1cc(-c2cc(-c3ccccc3S(C)(=O)=O)cnc2N)ccc1OC [CSLP33] &system= Recombinant RIPK2 protein (Homo sapiens) returns IC50: > 1000 nM

GET /values?item= CCCS(=O)(=O)Nc1cc(-c2cc(-c3ccc(N4CCNCC4)cc3)cnc2N)cc(OCC)c1OCC [CSLP49] &system= Recombinant RIPK2 protein (Homo sapiens) returns IC50: > 1000 nM

GET /values?item= CCCS(=O)(=O)Nc1cc(-c2cc(-c3ccc(N4CCNCC4)cc3)cnc2N)cc(F)c1C [CSLP41] &system= Recombinant RIPK2 protein (Homo sapiens) returns IC50: > 100 nM

GET /values?item= CCS(=O)(=O)Nc1cc(OC)cc(-c2cc(-c3ccc(N4CCNCC4)cc3)cnc2C)c1 [CSLP15] &system= Recombinant RIPK2 protein (Homo sapiens) returns IC50: > 100 nM

GET /values?item= CCCS(=O)(=O)Nc1cc(-c2cc(-c3cccc(S(C)(=O)=O)c3)cnc2N)ccc1OC [CSLP30] &system= Recombinant RIPK2 protein (Homo sapiens) returns IC50: > 100 nM

GET /values?item= COc1cc(NS(=O)(=O)CC(C)C)cc(-c2cc(-c3ccc(N4CCNCC4)cc3)cnc2N)c1 [CSLP12] &system= Recombinant RIPK2 protein (Homo sapiens) returns IC50: > 10 nM

GET /values?item= COc1cc(-c2cc(-c3ccc(N4CCNCC4)cc3)cnc2N)cc(NS(C)(=O)=O)c1C [CSLP21] &system= Recombinant RIPK2 protein (Homo sapiens) returns IC50: > 1000 nM

GET /values?item= CCCS(=O)(=O)Nc1cc(-c2cc(-c3ccc(N4CCNCC4)cc3)cnc2N)cc(F)c1OC [CSLP37] &system= Recombinant RIPK2 protein (Homo sapiens) returns IC50: > 10 nM
